All values here come from paper PMC11992225.

# System: S. flexneri 5a M90T
# experimentDescription: MIC in tryptic soy broth, S. flexneri
# Assay type: cell-based, Shigella flexneri
# conditionDescription: Shigella flexneri, 5AM90T, read-out: MIC (μM) TSB
readoutName: MIC (µM)

[[record]]
molecule = "[H]/N=C(\\N/C(=N/[H])NCCCCCCNC(=N)NC(=N)Nc1ccc(Cl)cc1)Nc1ccc(Cl)cc1"
targetorsystem = "S. flexneri 5a M90T"
readoutname = "MIC"
resultvalue = 1

[[record]]
molecule = "C=C[C@]1(C)C[C@@H](OC(=O)CSC(C)(C)CNC(=O)[C@H](N)C(C)C)[C@]2(C)[C@H](C)CC[C@]3(CCC(=O)[C@H]32)[C@@H](C)[C@@H]1O"
targetorsystem = "S. flexneri 5a M90T"
readoutname = "MIC"
resultvalue = 16

[[record]]
molecule = "COc1c(N2C[C@@H]3CCCN[C@@H]3C2)c(F)cc2c(=O)c(C(=O)O)cn(C3CC3)c12"
targetorsystem = "S. flexneri 5a M90T"
readoutname = "MIC"
resultvalue = 0.0625

[[record]]
molecule = "CO[C@@H]1[C@@H](O[C@@H]2O[C@H](C)[C@@H](O[C@H]3C[C@@](C)(O)[C@@H](OC(=O)CC(C)C)[C@H](C)O3)[C@H](N(C)C)[C@H]2O)[C@@H](CC=O)C[C@@H](C)[C@@H](O)/C=C/C=C/C[C@@H](C)OC(=O)C[C@H]1OC(C)=O"
targetorsystem = "S. flexneri 5a M90T"
readoutname = "MIC"
resultvalue = 128

[[record]]
molecule = "O=C(O)c1cn(-c2ccc(F)cc2)c2cc(N3CCNCC3)c(F)cc2c1=O"
targetorsystem = "S. flexneri 5a M90T"
readoutname = "MIC"
resultvalue = 0.0625

[[record]]
molecule = "CS[C@H]1SC[C@H]2C(=O)N(C)[C@@H](C(C)C)C(=O)OC[C@@H](NC(=O)c3cnc4ccccc4n3)C(=O)N[C@@H](C)C(=O)N(C)[C@@H]1C(=O)N(C)[C@@H](C(C)C)C(=O)OC[C@@H](NC(=O)c1cnc3ccccc3n1)C(=O)N[C@@H](C)C(=O)N2C"
targetorsystem = "S. flexneri 5a M90T"
readoutname = "MIC"
resultvalue = 4

[[record]]
molecule = "CO[C@H]1/C=C/O[C@@]2(C)Oc3c(C)c(O)c4c(c3C2=O)C2=NC3(CCN(CC(C)C)CC3)NC2=C(NC(=O)/C(C)=C\\C=C\\[C@H](C)[C@H](O)[C@@H](C)[C@@H](O)[C@@H](C)[C@H](OC(C)=O)[C@@H]1C)C4=O"
targetorsystem = "S. flexneri 5a M90T"
readoutname = "MIC"
resultvalue = 32

[[record]]
molecule = "COc1c(N2CCNC(C)C2)c(F)cc2c(=O)c(C(=O)O)cn(C3CC3)c12 (stereo not drawn)"
targetorsystem = "S. flexneri 5a M90T"
readoutname = "MIC"
resultvalue = 0.0312

[[record]]
molecule = "CCC(=O)O[C@@H]1CC(=O)O[C@H](C)C/C=C/C=C/[C@H](O)[C@H](C)C[C@H](CC=O)[C@H](O[C@@H]2O[C@H](C)[C@@H](O[C@H]3C[C@@](C)(O)[C@@H](OC(=O)CC)[C@H](C)O3)[C@H](N(C)C)[C@H]2O)[C@H]1OC"
targetorsystem = "S. flexneri 5a M90T"
readoutname = "MIC"
resultvalue = 128

[[record]]
molecule = "CC[C@H]1OC(=O)C[C@@H](O)[C@H](C)[C@@H](O[C@@H]2O[C@H](C)[C@@H](O[C@H]3C[C@@](C)(O)[C@@H](O)[C@H](C)O3)[C@H](N(C)C)[C@H]2O)[C@@H](CC=O)C[C@@H](C)C(=O)/C=C/C(C)=C/[C@@H]1CO[C@@H]1O[C@H](C)[C@@H](O)[C@@H](OC)[C@H]1OC"
targetorsystem = "S. flexneri 5a M90T"
readoutname = "MIC"
resultvalue = 128

[[record]]
molecule = "N[C@@H]1CCCCN(c2c(F)cc3c(=O)c(C(=O)O)cn(C4CC4)c3c2Cl)C1"
targetorsystem = "S. flexneri 5a M90T"
readoutname = "MIC"
resultvalue = 0.25

[[record]]
molecule = "CC1COc2c(N3CCN(C)CC3)c(F)cc3c(=O)c(C(=O)O)cn1c23 (stereo not drawn)"
targetorsystem = "S. flexneri 5a M90T"
readoutname = "MIC"
resultvalue = 0.125

[[record]]
molecule = "CO[C@@]12[C@H](COC(N)=O)C3=C(C(=O)C(C)=C(N)C3=O)N1C[C@@H]1N[C@@H]12"
targetorsystem = "S. flexneri 5a M90T"
readoutname = "MIC"
resultvalue = 1

[[record]]
molecule = "CO[C@H]1/C=C/O[C@@]2(C)Oc3c(C)c(O)c4c(O)c(c(/C=N/N5CCN(C6CCCC6)CC5)c(O)c4c3C2=O)NC(=O)/C(C)=C\\C=C\\[C@H](C)[C@H](O)[C@@H](C)[C@@H](O)[C@@H](C)[C@H](OC(C)=O)[C@@H]1C"
targetorsystem = "S. flexneri 5a M90T"
readoutname = "MIC"
resultvalue = 16

[[record]]
molecule = "O=C(O)c1cn(C2CC2)c2cc(N3CCNCC3)c(F)cc2c1=O"
targetorsystem = "S. flexneri 5a M90T"
readoutname = "MIC"
resultvalue = 0.0625

[[record]]
molecule = "CC[C@H]1OC(=O)C[C@@H](O)[C@H](C)[C@@H](O[C@@H]2O[C@H](C)C[C@H](N(C)C)[C@H]2O)[C@@H](CC=O)C[C@@H](C)C(=O)/C=C/[C@]2(C)O[C@H]2[C@@H]1C"
targetorsystem = "S. flexneri 5a M90T"
readoutname = "MIC"
resultvalue = 16

[[record]]
molecule = "CO[C@H]1/C=C/O[C@@]2(C)Oc3c(C)c(O)c4c(O)c(c(/C=N/N5CCN(C)CC5)c(O)c4c3C2=O)NC(=O)/C(C)=C\\C=C\\[C@H](C)[C@H](O)[C@@H](C)[C@@H](O)[C@@H](C)[C@H](OC(C)=O)[C@@H]1C"
targetorsystem = "S. flexneri 5a M90T"
readoutname = "MIC"
resultvalue = 8

[[record]]
molecule = "Cc1oc(=O)oc1CN1CCN(c2cc3c(cc2F)c(=O)c(C(=O)O)c2n3C(C)S2)CC1 (stereo not drawn)"
targetorsystem = "S. flexneri 5a M90T"
readoutname = "MIC"
resultvalue = 0.0312

[[record]]
molecule = "CC[C@H]1OC(=O)[C@@](C)(F)C(=O)[C@H](C)[C@@H](O[C@@H]2O[C@H](C)C[C@H](N(C)C)[C@H]2O)[C@](C)(OC)C[C@@H](C)C(=O)[C@H](C)[C@H]2N(CCCCn3cc(-c4cccc(N)c4)nn3)C(=O)O[C@]12C"
targetorsystem = "S. flexneri 5a M90T"
readoutname = "MIC"
resultvalue = 8

[[record]]
molecule = "NC1CCN(c2c(F)cc3c(=O)c(C(=O)O)cn(C4CC4)c3c2Cl)C1 (stereo not drawn)"
targetorsystem = "S. flexneri 5a M90T"
readoutname = "MIC"
resultvalue = 0.0156

[[record]]
molecule = "C[C@H]1NCc2cc(-c3ccc4c(=O)c(C(=O)O)cn(C5CC5)c4c3OC(F)F)ccc21"
targetorsystem = "S. flexneri 5a M90T"
readoutname = "MIC"
resultvalue = 0.0625


----------
# Tested on: non-growing UPEC CFT073
# experimentDescription: Dilution-regrowth assay (screen, hit validation, dose-response) on stationary-phase UPEC
# Type: cell-based, Escherichia coli
# conditionDescription: Escherichia coli, pH 7.4
readoutName: EC50

[[record]]
compound = "Cn1c(COP(=O)(NCCBr)NCCBr)cnc1[N+](=O)[O-] [Evofosfamide]"
resultvalue = "11.6 µM"

[[record]]
compound = "CO[C@@]12[C@H](COC(N)=O)C3=C(C(=O)C(C)=C(N)C3=O)N1C[C@@H]1N[C@@H]12"
resultvalue = "3.68 µM"

[[record]]
compound = "CS[C@H]1SC[C@H]2C(=O)N(C)[C@@H](C(C)C)C(=O)OC[C@@H](NC(=O)c3cnc4ccccc4n3)C(=O)N[C@@H](C)C(=O)N(C)[C@@H]1C(=O)N(C)[C@@H](C(C)C)C(=O)OC[C@@H](NC(=O)c1cnc3ccccc3n1)C(=O)N[C@@H](C)C(=O)N2C"
resultvalue = "2.4 µM"

[[record]]
compound = "N[C@@H]1CCCCN(c2c(F)cc3c(=O)c(C(=O)O)cn(C4CC4)c3c2Cl)C1"
resultvalue = "0.677 µM"


----------
# System: non-growing UPEC CFT073
# experimentDescription: Dilution-regrowth assay (screen, hit validation, dose-response) on stationary-phase UPEC
# Type: cell-based, Escherichia coli
# conditionDescription: E. coli in 1:4 CA-MHB (pH 7.4); drug concentration 1
Each entry below carries its recorded Regrowth, OD600 at 6h or 8h after dilution into drug-free medium (average).
readoutName: Regrowth, OD600 at 6h or 8h after dilution into drug-free medium (average)

[[record]]
compound = "CCCCC(CC)CNC(=N)NC(=N)NCCCCCCNC(=N)NC(=N)NCC(CC)CCCC (stereo not shown)"
resultvalue = 0.631

[[record]]
compound = "[H]/N=C(\\N/C(=N/[H])NCCCCCCNC(=N)NC(=N)Nc1ccc(Cl)cc1)Nc1ccc(Cl)cc1"
resultvalue = 0.646

[[record]]
compound = "CO[C@@]12[C@H](COC(N)=O)C3=C(C(=O)C(C)=C(N)C3=O)N1C[C@@H]1N[C@@H]12"
resultvalue = 0.551

[[record]]
compound = "CC(=O)[O][Pt]([NH2])([Cl])([Cl])([NH]C1CCCCC1)[O]C(C)=O"
resultvalue = 0.620

